- Target Of Assay: NMDA receptor (N-methyl-D-aspartate-specific L-[^3 H]glutamate recognition site in synaptic plasma membranes)
- Protocol Notes: NMDA-Selective Glutamate Binding Assay ([^3 H]GLU)
- Stated Conditions: NMDA-specific L-[^3 H]glutamate 12.5 nM; Triton X-100 treated SPM; pH 7.4; 0-4° C., 10 min
Structures can show the parent of a compound that is named as a salt.
Measure Name: Ki
Kindly format the answer as number then unit.

[ask] Data request, read-out Ki, for O=C(O)c1cn2c(n1)NCCC2CP(=O)(O)O (stereo not shown) [Example 1, ammonium salt]
[reply] 700 nM
